Target: T1, Human CD3eg linker (human)
T1 construct: Single-chain construct; also called recombinant human CD3
T1 chain: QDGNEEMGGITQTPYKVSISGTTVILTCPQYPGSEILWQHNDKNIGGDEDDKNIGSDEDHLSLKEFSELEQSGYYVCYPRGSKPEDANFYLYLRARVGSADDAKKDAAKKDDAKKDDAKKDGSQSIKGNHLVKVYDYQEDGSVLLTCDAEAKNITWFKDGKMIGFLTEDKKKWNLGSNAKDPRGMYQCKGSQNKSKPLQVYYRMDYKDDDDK
Test: SPR; fold vs parent H183/L072
assay_endpoint: fold change of affinity (fold)
State the answer as a number, implicitly in fold.

1) H183/L072 VL A25V (antibody, name in Kabat numbering, V domains shown) VH: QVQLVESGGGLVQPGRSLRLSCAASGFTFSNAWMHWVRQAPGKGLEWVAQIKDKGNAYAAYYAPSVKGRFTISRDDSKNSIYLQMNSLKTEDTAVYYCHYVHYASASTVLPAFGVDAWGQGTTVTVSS VL: DIVMTQSPLSLPVTPGEPASISCQVSQELVHMNRNTYLHWYQQKPGQAPRLLIYKVSNRFPGVPDRFSGSGSGTDFTLKISRVEAEDVGVYYCAQGTSVPFTFGQGTKLEIK	0.9

We next turn to a different binder, shown below.
Record H183/L072 VL Q27L (antibody, name in Kabat numbering, V domains shown) VH: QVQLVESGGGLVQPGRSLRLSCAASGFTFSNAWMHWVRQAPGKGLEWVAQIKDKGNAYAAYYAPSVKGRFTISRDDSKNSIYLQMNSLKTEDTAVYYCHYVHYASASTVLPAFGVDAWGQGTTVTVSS VL: DIVMTQSPLSLPVTPGEPASISCQASLELVHMNRNTYLHWYQQKPGQAPRLLIYKVSNRFPGVPDRFSGSGSGTDFTLKISRVEAEDVGVYYCAQGTSVPFTFGQGTKLEIK , field fold change of affinity: 1
